# System: COR L88 complex tumor spheroid viability
# testDescription: Anticancer human tumor COR L88 cell line growth inhibition;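 note: compound exposure lasted 7 days before viability readout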
# measurementParameters: curve of first compound; second compound 3.16 µM
quantity: pIC50
Interpret pIC50 as the negative base-10 log of the concentration measured in mol/L.

The cases that follow already have their pIC50 on record.
                                   compound  quantity  assayvalue
0  O=C(c1cc(Cc2n[nH]c(=O)c3ccccc23)ccc1F)N1CCN(C(=O)C2CC2)CC1 + Cn1nnc2c(C(N)=O)ncn2c1=O     pIC50        4.68
1  COc1ccc([C@@H](O)c2cc(-c3ncnc4cc(N5CCOCC5)ccc34)c(F)cc2Cl)nn1 + Cn1nnc2c(C(N)=O)ncn2c1=O     pIC50        5.08

Query compound follows.
# input Provide one value: measured pIC50 of Cn1ncnc1[C@H]1c2n[nH]c(=O)c3cc(F)cc(c23)N[C@@H]1c1ccc(F)cc1 + Cn1nnc2c(C(N)=O)ncn2c1=O
# output 6.91
